Kindly supply the reported CC 50 (μM ± SD) in MT-2 values for the records listed here.
Express your answer in µM, writing the number without its unit.

Lab note: need CC 50 (μM ± SD) in MT-2 for Ac-RRF-R8-ELLDYY-S5-ESGS-amide (sidechain bridge or staple) [NYAD-62] on MT-2 cells, anyone have it?
15.4

Lab note: need CC 50 (μM ± SD) in MT-2 for Ac-ISF-R8-ELLRYY-S5-R-amide (sidechain bridge or staple) [NYAD-56] on MT-2 cells, anyone have it?
16.4

Lab note: need CC 50 (μM ± SD) in MT-2 for Ac-RSF-R8-RLLDYY-S5-ESGS-amide (sidechain bridge or staple) [NYAD-61] on MT-2 cells, anyone have it?
31.7

* * *

The next entries give measured CC 50 (μM ± SD) in MT-2 for MT-2 cells.
Express your answer in µM, writing the number without its unit.

Lab note: need CC 50 (μM ± SD) in MT-2 for IRF-R8-QLLNYY-S5-ESGS-amide (sidechain bridge or staple) [NYAD-58] on MT-2 cells, anyone have it?
14.9

Lab note: need CC 50 (μM ± SD) in MT-2 for Ac-ISF-R8-EWLQYY-S5-R-amide (sidechain bridge or staple) [NYAD-33] on MT-2 cells, anyone have it?
9.2

Lab note: need CC 50 (μM ± SD) in MT-2 for Ac-ISF-R8-QLLDYY-S5-QSGSK-amide (sidechain bridge or staple) [NYAD-46] on MT-2 cells, anyone have it?
10.6

Lab note: need CC 50 (μM ± SD) in MT-2 for Ac-ISF-R8-ELLDYY-S5-ESGSKKK-amide (sidechain bridge or staple) [NYAD-44] on MT-2 cells, anyone have it?
17.2

Lab note: need CC 50 (μM ± SD) in MT-2 for ISF-R8-ELLNYY-S5-ESGS-amide (sidechain bridge or staple) [NYAD-57] on MT-2 cells, anyone have it?
39.6

* * *

Kindly supply the reported CC 50 (μM ± SD) in MT-2 values for the records listed here.

Lab note: need CC 50 (μM ± SD) in MT-2 for Ac-RSFE-R8-LLDYYG-S5-SGS-amide (sidechain bridge or staple) [NYAD-65] on MT-2 cells, anyone have it?
>116 µM

Lab note: need CC 50 (μM ± SD) in MT-2 for Ac-ISF-R8-ELEDYY-S5-ESGS (sidechain bridge or staple) [NYAD-43] on MT-2 cells, anyone have it?
>106.6 µM

Lab note: need CC 50 (μM ± SD) in MT-2 for Ac-SK-R8-ELLDYY-S5-ESGS-amide (sidechain bridge or staple) [NYAD-64] on MT-2 cells, anyone have it?
>109 µM

* * *

Where no end group is shown, it is not given here.
Kindly supply the reported CC 50 (μM ± SD) in MT-2 values for the records listed here.

Lab note: need CC 50 (μM ± SD) in MT-2 for ITFEDLLDYYGP-NH2 [CAI, reference compound] on MT-2 cells, anyone have it?
>100 µM

Lab note: need CC 50 (μM ± SD) in MT-2 for Ac-R-R8-FAELLD-S5-YGESGS-amide (sidechain bridge or staple) [NYAD-63] on MT-2 cells, anyone have it?
>113 µM

Lab note: need CC 50 (μM ± SD) in MT-2 for Ac-ISF-R8-ELLDYY-S5-EKSGSKD-amide (sidechain bridge or staple) [NYAD-55] on MT-2 cells, anyone have it?
>89.7 µM
